Give pEC50 for every item shown.
- subjectOfTest: endogenous GABAB receptor in CGNs (Mus musculus, UniProt Q9WV18)
- Construct: gene Gabbr1; native receptor, primary cerebellar granule neurons
- Sequence (Q9WV18 whole entry): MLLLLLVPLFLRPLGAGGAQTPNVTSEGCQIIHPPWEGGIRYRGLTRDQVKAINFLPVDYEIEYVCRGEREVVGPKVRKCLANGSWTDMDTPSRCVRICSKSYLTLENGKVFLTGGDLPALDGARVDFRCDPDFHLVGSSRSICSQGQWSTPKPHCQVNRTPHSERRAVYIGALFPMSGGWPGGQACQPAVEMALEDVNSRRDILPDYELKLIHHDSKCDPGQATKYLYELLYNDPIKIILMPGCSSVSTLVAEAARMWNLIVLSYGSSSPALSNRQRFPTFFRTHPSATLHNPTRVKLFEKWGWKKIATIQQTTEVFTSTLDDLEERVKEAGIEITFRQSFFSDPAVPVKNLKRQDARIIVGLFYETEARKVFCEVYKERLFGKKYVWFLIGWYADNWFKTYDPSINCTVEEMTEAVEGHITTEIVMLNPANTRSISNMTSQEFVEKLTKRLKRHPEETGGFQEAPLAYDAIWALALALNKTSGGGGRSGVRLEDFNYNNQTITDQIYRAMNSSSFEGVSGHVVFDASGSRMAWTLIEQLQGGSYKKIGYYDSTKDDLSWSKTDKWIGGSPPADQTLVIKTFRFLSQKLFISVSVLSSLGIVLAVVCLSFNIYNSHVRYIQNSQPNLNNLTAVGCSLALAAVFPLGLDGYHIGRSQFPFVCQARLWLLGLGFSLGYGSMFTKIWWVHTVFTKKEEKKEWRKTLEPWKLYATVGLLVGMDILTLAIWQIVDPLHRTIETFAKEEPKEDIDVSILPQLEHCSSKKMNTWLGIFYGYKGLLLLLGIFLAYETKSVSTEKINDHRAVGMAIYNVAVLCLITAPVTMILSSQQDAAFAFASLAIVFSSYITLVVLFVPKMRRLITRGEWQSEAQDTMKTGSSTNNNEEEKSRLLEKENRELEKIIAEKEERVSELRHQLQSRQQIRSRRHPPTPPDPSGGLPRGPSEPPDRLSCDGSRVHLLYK
- Sequence (Q80T41 whole entry partner): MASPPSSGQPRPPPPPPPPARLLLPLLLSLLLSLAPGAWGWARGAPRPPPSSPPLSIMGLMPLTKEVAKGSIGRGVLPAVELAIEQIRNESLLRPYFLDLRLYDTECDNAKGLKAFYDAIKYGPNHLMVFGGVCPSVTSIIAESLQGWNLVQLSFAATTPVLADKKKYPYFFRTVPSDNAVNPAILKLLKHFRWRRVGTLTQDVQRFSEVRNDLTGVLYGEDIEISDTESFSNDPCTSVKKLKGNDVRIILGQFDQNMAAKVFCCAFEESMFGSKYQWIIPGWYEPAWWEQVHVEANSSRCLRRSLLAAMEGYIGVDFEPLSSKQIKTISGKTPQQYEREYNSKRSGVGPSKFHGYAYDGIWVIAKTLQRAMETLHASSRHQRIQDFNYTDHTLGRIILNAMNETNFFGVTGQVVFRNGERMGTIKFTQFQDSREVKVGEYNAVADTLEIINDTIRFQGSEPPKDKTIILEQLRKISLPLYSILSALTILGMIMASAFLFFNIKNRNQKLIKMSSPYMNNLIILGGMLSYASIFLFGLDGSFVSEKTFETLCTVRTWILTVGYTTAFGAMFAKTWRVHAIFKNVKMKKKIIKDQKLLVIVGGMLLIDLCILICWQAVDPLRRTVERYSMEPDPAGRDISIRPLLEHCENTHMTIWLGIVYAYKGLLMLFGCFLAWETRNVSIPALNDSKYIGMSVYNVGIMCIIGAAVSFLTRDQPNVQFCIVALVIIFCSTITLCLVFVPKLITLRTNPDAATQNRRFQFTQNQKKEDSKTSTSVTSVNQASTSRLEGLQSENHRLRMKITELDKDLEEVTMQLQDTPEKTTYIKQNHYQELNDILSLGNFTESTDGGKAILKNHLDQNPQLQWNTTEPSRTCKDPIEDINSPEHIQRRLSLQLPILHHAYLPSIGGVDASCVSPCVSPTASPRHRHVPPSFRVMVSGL
- procedureText: cell-based
- Parameters: species or system primary cerebellar granule neurons (CGNs); BRET G protein sensor (Galpha-Nluc / Venus-Ggamma2), agonist-induced change of BRET
- conditionsUsed: GoA sensor
Answers are plain numbers, as −log10 of the molar value.

Record excerpt, results attached:
Input line: I am curious: what pEC50 value has been reported for `CP(=O)(O)CCCN` ?
Output line: 5.69

Input line: I am curious: what pEC50 value has been reported for NCC(CC(=O)O)c1ccc(Cl)cc1 (stereo not drawn) ?
Output line: 5.57

New cases:
Input line: I am curious: what pEC50 value has been reported for `NCCC[PH](=O)O` ?
Output line: 6.16
